# Tested on: Orobanche cumana Wallr. seeds (race F; seed lots IN146 and IN153)
# assayExplanation: Germination of preconditioned Orobanche cumana seeds on glass fiber filter paper in petri dishes
# Assay type: in vivo
# testConditions: Table 5; seed lot IN146, race F; 0.001 mg l^−1; mean, N = 5 × 100 seeds, re-transformed data
The molecules listed here are annotated with their Germination % at concentration of 0.001 mg l^−1.
readout: Germination % at concentration of 0.001 mg l^−1

[
  {
    "molecule": "CCCc1cccc2c1CC1C(=COC3C=C(C)C(=O)O3)C(=O)NC21 (stereo not shown)",
    "result": "85.3 ab %"
  },
  {
    "molecule": "CC1=CC(OC=C2C(=O)NC3c4cccc(C#N)c4CC23)OC1=O (stereo not shown)",
    "result": "86.3 ab %"
  },
  {
    "molecule": "CC1=CC(OC=C2C(=O)NC3c4cccc(Br)c4CC23)OC1=O (stereo not shown)",
    "result": "76.9 abc %"
  },
  {
    "molecule": "CC1=CC(OC=C2C(=O)N(C(=O)OC(C)(C)C)C3c4ccccc4CC23)OC1=O (mixture of isomers)",
    "result": "0 e %"
  }
]
